target: Plasmodium falciparum lysyl t-RNA synthetase (Pf-KRS1) (Plasmodium falciparum, UniProt Q8IDJ8); construct: Pf KRS1-; made in house; host or cells: E. coli BL21 (DE3); assay: Pf-KRS1 inhibition biochemical assay (Kinase-Glo, ATP depletion); details: read-out: Pf-KRS pIC50 (converted)
Sequence (Q8IDJ8 entry or part of it, looked up, natural form): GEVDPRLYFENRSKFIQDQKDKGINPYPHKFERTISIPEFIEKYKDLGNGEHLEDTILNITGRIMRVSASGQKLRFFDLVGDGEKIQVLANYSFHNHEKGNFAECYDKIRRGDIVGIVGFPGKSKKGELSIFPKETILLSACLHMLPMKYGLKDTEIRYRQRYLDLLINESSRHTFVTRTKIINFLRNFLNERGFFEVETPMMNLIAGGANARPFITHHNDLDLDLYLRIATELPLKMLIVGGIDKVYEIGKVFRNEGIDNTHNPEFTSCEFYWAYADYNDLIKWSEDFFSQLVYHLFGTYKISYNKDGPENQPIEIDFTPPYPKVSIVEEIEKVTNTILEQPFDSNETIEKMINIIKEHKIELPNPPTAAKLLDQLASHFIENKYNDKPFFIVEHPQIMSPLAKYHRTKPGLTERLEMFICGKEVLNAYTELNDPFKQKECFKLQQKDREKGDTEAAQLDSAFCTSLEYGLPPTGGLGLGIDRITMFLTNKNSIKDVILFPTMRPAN
Parameter: IC50 (nM)

{"columns": ["Compound", "Parameter", "Endpoint Unit", "Reported"],
 "data": [
  ["O=C(NCC1(O)CCCCC1)c1cc(=O)c2cc(F)cc(O)c2o1", "IC50", "nM", 50.1],
  ["CS(=O)(=O)Nc1cc(F)cc2c(=O)cc(C(=O)NCC3CCCCC3)oc12", "IC50", "nM", 158],
  ["O=C(NCC1CCCCC1)c1cc(=O)c2cc(F)ccc2o1", "IC50", "nM", 79.4],
  ["O=C(NCC1CCCCC1)c1cc(=O)c2ccc(O)cc2o1", "IC50", "nM", 1000],
  ["O=C(NCCC1CCCC1)c1cc(=O)c2ccccc2o1", "IC50", "nM", 501],
  ["O=C(NCC1CCCCC1)c1cc(=O)c2cc(O)ccc2o1", "IC50", "nM", 63.1],
  ["O=C(NCC1(O)CCCC1)c1cc(=O)c2cc(F)cc(O)c2o1 [Example 76F]", "IC50", "nM", 79.4],
  ["O=C(NC1CCCC(F)(F)C1)c1cc(=O)c2cc(F)cc(O)c2o1 (centres unmarked) [Example 76C]", "IC50", "nM", 316],
  ["O=C(NCCCC1CCC1)c1cc(=O)c2cc(F)cc(O)c2o1 [Example 76G]", "IC50", "nM", 126],
  ["COc1cc2c(=O)cc(C(=O)NCC3CCCCC3)oc2cc1F", "IC50", "nM", 398],
  ["Nc1cccc2c(=O)cc(C(=O)NCC3CCCCC3)oc12", "IC50", "nM", 50.1],
  ["O=C(NCC1(O)CC2(CCC2)C1)c1cc(=O)c2cc(F)cc(O)c2o1 [Example 76D]", "IC50", "nM", 126],
  ["O=C(NCC1(O)CCC(F)(F)CC1)c1cc(=O)c2ccc(F)c(O)c2o1", "IC50", "nM", 316],
  ["O=C(NCC1CCCCC1)c1cc(=O)c2cc(F)cc(O)c2o1", "IC50", "nM", 50.1],
  ["O=C(NC1CCCCC1)c1cc(=O)c2cc(F)cc(O)c2o1 [Example 76B]", "IC50", "nM", 398],
  ["CCC(C)CNC(=O)c1cc(=O)c2cc(F)cc(O)c2o1 (centres unmarked) [Example 76H]", "IC50", "nM", 251],
  ["O=C(NCC1(O)CCC(F)(F)CC1)c1cc(=O)c2cc(F)cc(O)c2o1 [Example 76A]", "IC50", "nM", 50.1],
  ["COc1cccc2c(=O)cc(C(=O)NCC3CCCCC3)oc12", "IC50", "nM", 501],
  ["O=C(NCC1CCCCC1)c1cc(=O)c2ccc(Cl)cc2o1", "IC50", "nM", 200],
  ["O=C(NCC1(O)CCCCC1)c1cc(=O)c2ccccc2o1", "IC50", "nM", 126]
]}
